Assay: physchem
Conditions: pH 7.4, kinetic solubility, PBS pH7.4 in 2% DMSO
The following compounds are listed with their measured solubility kinetic values.

compound.structure.string: O=C(NCCO)c1ccc(-c2nnc(Cc3c[nH]c4ccccc34)nc2-c2ccccc2)cc1
solubility kinetic, µM: 61

compound.structure.string: c1ccc(-c2nc(Cc3c[nH]c4ccccc34)nnc2-c2ccc(CN3CCOCC3)cc2)cc1
solubility kinetic, µM: 14

compound.structure.string: c1ccc(-c2nnc(Cc3c[nH]c4ccccc34)nc2-c2ccccc2)cc1
solubility kinetic, µM: 1.4

compound.structure.string: CNC(=O)c1ccc(-c2nnc(Cc3c[nH]c4cnccc34)nc2-c2ccccc2)cc1
solubility kinetic, µM: 146
